Consider the following compounds; for each one, report its Ki.
# Test System: D(3) dopamine receptor (Homo sapiens, UniProt P35462)
# Sequence (P35462 whole entry): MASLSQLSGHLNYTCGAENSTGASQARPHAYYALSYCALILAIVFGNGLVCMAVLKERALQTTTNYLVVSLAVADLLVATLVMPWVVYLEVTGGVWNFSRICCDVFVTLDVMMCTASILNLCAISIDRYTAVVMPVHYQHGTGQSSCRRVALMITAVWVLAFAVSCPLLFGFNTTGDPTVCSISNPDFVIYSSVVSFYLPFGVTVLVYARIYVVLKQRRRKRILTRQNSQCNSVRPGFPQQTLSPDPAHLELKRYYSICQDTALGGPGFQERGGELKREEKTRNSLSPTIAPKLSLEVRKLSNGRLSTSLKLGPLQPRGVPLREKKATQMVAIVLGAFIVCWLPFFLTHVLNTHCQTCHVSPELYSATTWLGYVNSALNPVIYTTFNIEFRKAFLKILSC
# Experimental Details: Displacement of [3H]methyl-spiperone from recombinant human D3 receptor expressed in CHO cells
Please state the figure in nM; there is no need to write the unit.

Bench note, D(3) dopamine receptor (Homo sapiens, UniProt P35462): CCN(C)C(=O)N[C@H]1CC[C@H](CCN2CCc3ccc(Cl)cc3[C@@H](C)C2)CC1 , Ki reads 7.2

Bench note, D(3) dopamine receptor (Homo sapiens, UniProt P35462): C[C@H]1CN(CC[C@H]2CC[C@H](N3C(=O)[C@@H]4[C@H](C3=O)[C@@H]3C=C[C@H]4C3)CC2)CCc2ccc(Cl)cc21 , Ki reads 6.9

Bench note, D(3) dopamine receptor (Homo sapiens, UniProt P35462): C[C@H]1CN(CC[C@H]2CC[C@H](NC(=O)Nc3ccccc3)CC2)CCc2ccc(Cl)cc21 , Ki reads 1.5

Bench note, D(3) dopamine receptor (Homo sapiens, UniProt P35462): CCCC(=O)N[C@H]1CC[C@H](CCN2CCc3ccc(Cl)cc3[C@@H](C)C2)CC1 , Ki reads 8.1

Bench note, D(3) dopamine receptor (Homo sapiens, UniProt P35462): CCN(CC)C(=O)N[C@H]1CC[C@H](CCN2CCc3ccc(Cl)cc3[C@@H](C)C2)CC1 , Ki reads 15

Bench note, D(3) dopamine receptor (Homo sapiens, UniProt P35462): C[C@H]1CN(CC[C@H]2CC[C@H](NC(=O)N(C)C)CC2)CCc2ccc(Cl)cc21 , Ki reads 0.5

Bench note, D(3) dopamine receptor (Homo sapiens, UniProt P35462): C[C@H]1CN(CC[C@H]2CC[C@H](NC(=O)C3CCCCC3)CC2)CCc2ccc(Cl)cc21 , Ki reads 17.5
